parameter: melting point

# compound, melting point
rows = [
    ("COc1ccc(OC)c2c1C(=O)C1=C(S[C@@H]3O[C@H](CO)[C@H](O)[C@H](O)[C@H]3O1)C2=O [Compound 17b]", "> 350 °C"),
]

Value lookup for melting point; key = COc1c(Cl)c(Cl)c(OC)c2c1C(=O)C1=C(S[C@@H]3O[C@H](CO)[C@@H](O)[C@H](O)[C@H]3O1)C2=O [Compound 18a] 222 to 224 °C

Same thing, different compound: COc1c(Cl)c(Cl)c(OC)c2c1C(=O)C1=C(S[C@@H]3O[C@H](CO)[C@H](O)[C@H](O)[C@H]3O1)C2=O [Compound 18b] 276 to 279 °C

Same thing, different compound: O=C1C2=C(S[C@@H]3OC[C@H](O)[C@H](O)[C@H]3O2)C(=O)c2c(O)cccc21 [Compound 19d] 319 to 321 °C

Same thing, different compound: COc1ccc(OC)c2c1C(=O)C1=C(S[C@@H]3O[C@H](CO)[C@@H](O)[C@H](O)[C@H]3O1)C2=O [Compound 17a] 332 to 335 °C

Same thing, different compound: COc1c(Cl)c(Cl)c(OC)c2c1C(=O)C1=C(S[C@@H]3OC[C@@H](O)[C@H](O)[C@H]3O1)C2=O [Compound 18c] 277 to 279 °C

Same thing, different compound: COc1ccc(OC)c2c1C(=O)C1=C(S[C@@H]3OC[C@@H](O)[C@H](O)[C@H]3O1)C2=O [Compound 17c] 329 to 332 °C

---

- Tested on: human cervical cancer (HeLa)
- assay.text: Cytotoxicity, MTT assay, HeLa cells
- protocol.conditions: Homo sapiens, HeLa, 24 h, read-out: Cytotoxicity (EC50), HeLa
parameter: EC50 (µM)
Write the answer as a number in µM, unit excluded.

Worked cases, EC50 given:
# compound, EC50 / µM
data = [
    ("COc1c(Cl)c(Cl)c(OC)c2c1C(=O)C1=C(S[C@@H]3OC[C@@H](O)[C@H](O)[C@H]3O1)C2=O [Compound 18c]", 10.1),
    ("COc1c(Cl)c(Cl)c(OC)c2c1C(=O)C1=C(S[C@@H]3O[C@H](CO)[C@H](O)[C@H](O)[C@H]3O1)C2=O [Compound 18b]", 8),
    ("O=C1C2=C(S[C@@H]3OC[C@H](O)[C@H](O)[C@H]3O2)C(=O)c2c(O)cccc21 [Compound 19d]", 1.3),
    ("O=C1C2=C(S[C@@H]3O[C@H](CO)[C@H](O)[C@H](O)[C@H]3O2)C(=O)c2c(O)cccc21 [Compound 19b]", 2.7),
]

Find EC50 (human cervical cancer (HeLa)) for the entry O=C1C2=C(S[C@@H]3O[C@H](CO)[C@@H](O)[C@H](O)[C@H]3O2)C(=O)c2c(O)cccc21 [Compound 19a] 3.7

Same thing, different compound: O=C1C2=C(O[C@@H]3[C@@H](O)[C@H](O)[C@@H](CO)O[C@H]3S2)C(=O)c2c(O)cccc21 [Compound 20a] 6.3

---

- System: mouse ascites Ehrlich carcinoma
- assay.text: Cytotoxicity, nonspecific esterase (FDA) assay, ascites Ehrlich carcinoma cells
- protocol.conditions: Mus musculus, Ehrlich, 24 h, read-out: Cytotoxicity (EC50), Ascites Ehrlich Carcinoma
parameter: EC50

Worked cases, EC50 given:
# compound, endpoint.value
records = [
    ("COc1ccc(OC)c2c1C(=O)C1=C(S[C@@H]3OC[C@H](O)[C@H](O)[C@H]3O1)C2=O [Compound 17d]", "> 25 µM"),
    ("O=C1C=CC(=O)c2c(O)cccc21 [Juglone, 5-hydroxy-1,4-naphthoquinone, reference compound]", "> 100 µM"),
]

Then this compound:
Value lookup for EC50; key = COc1ccc(OC)c2c1C(=O)C1=C(S[C@@H]3O[C@H](CO)[C@@H](O)[C@H](O)[C@H]3O1)C2=O [Compound 17a] > 25 µM
